Overview of recorded RAM network inhibition for various compounds
# assay.method.text: RAM signaling pathway blockade in yeast – S. cerevisiae, Pdr1DBD-CYC8 efflux-inhibited sensitized strain, primary screen (AID 1298);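 also: 0% = DMSO untreated cells without growth and 100% = 10 µM 1-NA-PP1 full growth; higher means more yeast growth rescued from 5-FOA killing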
# setup.conditions: S. cerevisiae cbk1-as DSE1-URA3 strain, 5-FOA growth OD615, 2 d; at 50 µM; stronger effect = higher value

| compound | result.unit | RAM network inhibition |
| --- | --- | --- |
| COC(=O)CSC1=C(C#N)C(c2ccc(F)cc2)CC(=O)N1 (stereo unspecified) | % | -1.71 |
| CCn1cc(SCC(=O)NCC2CCCO2)c2ccccc21 (stereo unspecified) | % | 4.96 |
| Cc1ccccc1Cn1nc(C)c(NC(=O)c2noc3c2CCc2ccccc2-3)c1C | % | 6.54 |
| Cc1cc(C)nc(NS(=O)(=O)c2ccc(Br)s2)c1 | % | 9.36 |
| O=C(CCCn1c(=O)c2sccc2n(Cc2cc(=O)n3ccccc3n2)c1=O)NCc1ccco1 | % | 0.21 |
| COc1ccc(-c2cc(C(F)(F)F)nc(S(C)(=O)=O)n2)cc1OC | % | -0.26 |
| CCSC1=C(C#N)C(c2ccccc2OC)CC(=O)N1 (stereo unspecified) | % | 1.8 |
| Cc1nnc2n(-c3ccc(Cl)cc3)c(=O)c3c4c(sc3n12)CN(C)CC4 | % | 2.13 |
| CC1=C(C(=O)Nc2cccnc2)C(c2ccc(C(C)C)cc2)n2ncnc2N1 (stereo unspecified) | % | 1.4 |
| O=C1C/C(=C/NCc2ccccc2)C(=O)N1 | % | 2.77 |
| Cc1ccc(S(=O)(=O)N2CCCC2C(=O)Nc2nccs2)cc1 (stereo unspecified) | % | 4.76 |
